The measured values listed here are drawn from paper PMC4336329.

biological target: human ether-à-go-go-related gene (hERG) potassium channel (human, UniProt Q12809); assay: primary screen, population patch clamp on CHO cells stably expressing hERG; higher = less effect of the substance;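 also: peak tail current of the secondary pulse compared with the same well before compound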
Sequence (Q12809 whole entry, looked up): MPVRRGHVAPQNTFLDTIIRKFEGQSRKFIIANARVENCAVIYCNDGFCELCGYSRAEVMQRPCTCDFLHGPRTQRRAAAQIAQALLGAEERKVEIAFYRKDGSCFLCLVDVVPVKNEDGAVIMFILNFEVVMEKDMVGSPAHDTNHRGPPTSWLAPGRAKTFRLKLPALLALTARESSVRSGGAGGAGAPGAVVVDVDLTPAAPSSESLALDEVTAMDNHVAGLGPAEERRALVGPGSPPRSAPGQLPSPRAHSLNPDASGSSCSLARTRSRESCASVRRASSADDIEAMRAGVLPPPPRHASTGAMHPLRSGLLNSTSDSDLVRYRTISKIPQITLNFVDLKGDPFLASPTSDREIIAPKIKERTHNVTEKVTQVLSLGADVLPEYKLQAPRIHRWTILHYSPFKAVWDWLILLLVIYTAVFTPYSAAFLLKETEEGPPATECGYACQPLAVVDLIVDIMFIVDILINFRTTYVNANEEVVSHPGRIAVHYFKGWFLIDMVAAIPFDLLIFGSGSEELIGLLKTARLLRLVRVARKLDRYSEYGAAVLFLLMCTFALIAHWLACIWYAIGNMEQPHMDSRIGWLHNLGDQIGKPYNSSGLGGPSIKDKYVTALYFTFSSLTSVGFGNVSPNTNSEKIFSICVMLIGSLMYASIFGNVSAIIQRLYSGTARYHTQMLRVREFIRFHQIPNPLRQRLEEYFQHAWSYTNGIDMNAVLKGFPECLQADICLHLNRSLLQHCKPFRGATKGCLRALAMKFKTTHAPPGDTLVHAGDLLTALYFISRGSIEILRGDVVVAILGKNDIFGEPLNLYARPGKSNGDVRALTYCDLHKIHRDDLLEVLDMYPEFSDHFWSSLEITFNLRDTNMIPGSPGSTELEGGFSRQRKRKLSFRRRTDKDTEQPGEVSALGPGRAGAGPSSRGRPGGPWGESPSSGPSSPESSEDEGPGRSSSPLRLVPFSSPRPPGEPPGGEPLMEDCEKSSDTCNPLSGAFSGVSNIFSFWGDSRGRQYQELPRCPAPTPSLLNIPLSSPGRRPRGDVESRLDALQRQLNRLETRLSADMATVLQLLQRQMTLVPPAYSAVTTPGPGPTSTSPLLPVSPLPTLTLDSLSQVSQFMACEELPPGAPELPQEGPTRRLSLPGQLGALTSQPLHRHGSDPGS
About 14,000 (4.5%) of roughly 310,000 compounds showed an effect of 50% or more. Effects have a minus sign here. The sample as a whole holds a higher share of strong results than the screen did.
Observable: hERG current change (%, negative = inhibition) at 10uM (%)
Response body: numeric value in %, unit text excluded.

Quick one: hERG current change (%, negative = inhibition) at 10uM for COc1cc(/C=N/N(C)C2=NS(=O)(=O)c3ccccc32)cc(OC)c1OC ? 7.82

Quick one: hERG current change (%, negative = inhibition) at 10uM for O=C(NCc1ccccn1)Nc1ccc(Cl)cc1 ? 13.9

Quick one: hERG current change (%, negative = inhibition) at 10uM for CCn1c(-c2csc(C(C)C)c2)n[nH]c1=S ? 37.1

Quick one: hERG current change (%, negative = inhibition) at 10uM for CC(C)CCC(CCNCc1ccccn1)c1ccc(Cl)cc1 (stereo not drawn) ? -80.4

Quick one: hERG current change (%, negative = inhibition) at 10uM for COc1ccc(CN(C)CC(=O)Nc2ccc(SC(F)F)cc2)cc1OC ? -76.2

Quick one: hERG current change (%, negative = inhibition) at 10uM for O=C(c1ccc([N+](=O)[O-])cc1)N1CCSC1c1ccc(Br)cc1 (stereo not drawn) ? -64.2

Quick one: hERG current change (%, negative = inhibition) at 10uM for CCCCCCSc1ccc([C@@H]2[C@H]3C(=O)N(C)C(=O)[C@H]3[C@]3(C(=O)OC)CCCCN23)cc1.O=C(O)C(F)(F)F ? -10.9

Quick one: hERG current change (%, negative = inhibition) at 10uM for O=C(O)C(=O)O.c1ccc(CNCCc2ccc3c(c2)OCO3)nc1 ? 2.74

Quick one: hERG current change (%, negative = inhibition) at 10uM for O=C(CC1C(=O)NCCN1C(=O)c1ccc([N+](=O)[O-])cc1)Nc1cccc(Cl)c1 (stereo not drawn) ? -40.4

---

biological target: human ether-à-go-go-related gene (hERG) potassium channel (human); assay: primary screen, population patch clamp on CHO cells stably expressing hERG; higher = less effect of the substance;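 also: peak tail current of the secondary pulse compared with the same well before compound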
In all, about 310,000 compounds went through this assay and about 14,000 (4.5%) showed an effect of 50% or more. Effects have a minus sign here. The full list was thinned out, with strong results kept by preference.
Everything with hERG current change (%, negative = inhibition) at 10uM lower than -20% is FALSE; everything else, including exactly -20%, is TRUE.

Is it the case that O=C(NCCN1CCCCC1)Nc1ccc(Br)cc1 has hERG current change (%, negative = inhibition) at 10uM reaching or exceeding -20%? FALSE

Is it the case that O=C(c1ccco1)N1CCN(C(=S)Nc2ccc(F)cc2)CC1 has hERG current change (%, negative = inhibition) at 10uM reaching or exceeding -20%? TRUE

Is it the case that CC(=O)Nc1ccc(C(=O)OCCC(C)C)cc1 has hERG current change (%, negative = inhibition) at 10uM reaching or exceeding -20%? TRUE

Is it the case that CC(C)CNc1nnnc2c1sc1nc(N3CCOCC3)c3c(c12)CC(C)(C)SC3 has hERG current change (%, negative = inhibition) at 10uM reaching or exceeding -20%? FALSE

Is it the case that COc1ccc(OC)c(/C=N/NC(=O)c2cnccn2)c1 has hERG current change (%, negative = inhibition) at 10uM reaching or exceeding -20%? TRUE

Is it the case that O=C(c1ccco1)N1CCN(C(=S)NC2CC3CCC2C3)CC1 (stereo not drawn) has hERG current change (%, negative = inhibition) at 10uM reaching or exceeding -20%? FALSE

Is it the case that O=C1COc2ccc(C(=O)CSc3nnc(NCc4ccccc4)s3)cc2N1 has hERG current change (%, negative = inhibition) at 10uM reaching or exceeding -20%? TRUE

Is it the case that O=C(NCCOc1ccccc1)c1cncc(Br)c1 has hERG current change (%, negative = inhibition) at 10uM reaching or exceeding -20%? FALSE

Is it the case that Cc1ccc(C2NC(=O)NC3=C2CCc2ccccc23)cc1 (stereo not drawn) has hERG current change (%, negative = inhibition) at 10uM reaching or exceeding -20%? TRUE
